target: Coagulation factor X (Homo sapiens, UniProt P00742); test: Inhibitory activity against factor Xa
Sequence (P00742 41-179 limits assumed): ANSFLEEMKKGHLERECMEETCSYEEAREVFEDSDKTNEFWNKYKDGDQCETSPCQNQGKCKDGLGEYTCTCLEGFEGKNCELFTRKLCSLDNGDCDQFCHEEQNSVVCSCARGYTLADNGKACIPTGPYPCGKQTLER
Sequence (P00742 235-488 limits assumed): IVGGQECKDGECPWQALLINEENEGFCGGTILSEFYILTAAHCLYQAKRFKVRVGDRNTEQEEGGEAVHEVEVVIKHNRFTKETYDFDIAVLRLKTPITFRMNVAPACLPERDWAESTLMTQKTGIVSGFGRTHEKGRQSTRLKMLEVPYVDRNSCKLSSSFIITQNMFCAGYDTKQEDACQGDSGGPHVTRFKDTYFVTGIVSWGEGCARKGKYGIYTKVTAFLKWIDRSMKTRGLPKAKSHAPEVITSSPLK
pIC50: −log10 of the molar value.
Experimental readout: pIC50

>>> print(df.to_string())
                         compound_structure  measurement
0  CCSCC(=C(F)C(=O)Nc1ccc(-c2ccccc2S(N)(=O)=O)cc1)c1cccc(C(=N)N)c1         7.89
1  COc1ccc(C(=N)N)cc1C=CC(=O)Nc1ccc(-c2ccccc2S(N)(=O)=O)cc1         6.67
2  CC(C)CC(=CC(=O)Nc1ccc(-c2ccccc2S(N)(=O)=O)cc1)c1cccc(C(=N)N)c1         8.30
3  N=C(N)c1cccc(C(=C(F)C(=O)Nc2ccc(-c3ccccc3S(N)(=O)=O)cc2)C(F)(F)F)c1         8.52
4  N=C(N)c1cccc(C(=CC(=O)Nc2ccc(-c3ccccc3S(N)(=O)=O)cc2)Cn2cnnn2)c1         7.28

---

biological target: UniProtKB P00734
Experimental readout: IC50

>>> print(df.to_string())
                         compound_structure       system_name  experimental_readout  measurement
0  CC(=C(F)C(=O)Nc1ccc(-c2ccccc2S(N)(=O)=O)cc1)c1cccc(C(=N)N)c1  UniProtKB P00734                  IC50      3.19 µM

---

target: Coagulation factor X (Homo sapiens, UniProt P00742); experiment: Inhibitory activity against factor Xa
pIC50: −log10 of the molar value.
Property: pIC50; scope: individual compounds
Experimental readout: pIC50

In [3]: df
Out[3]:
                         compound_structure  experimental_readout  measurement
0  COc1ccc(C=CC(=O)Nc2ccc(-c3ccccc3S(N)(=O)=O)cc2)cc1C(=N)N                 pIC50         5.19
1  CC(C)C(=CC(=O)Nc1ccc(-c2ccccc2S(N)(=O)=O)cc1)c1cccc(C(=N)N)c1                 pIC50         7.46
2  C/C(=C(\F)C(=O)Nc1ccc(-c2ccccc2S(N)(=O)=O)cc1F)c1cccc(C(=N)N)c1                 pIC50         9.70
3  CC(=C(F)C(=O)Nc1ccc(-c2ccccc2S(N)(=O)=O)cc1Cl)c1ccc(F)c(C(=N)N)c1                 pIC50         9.13
4  N=C(N)c1cccc(C(=CC(=O)Nc2ccc(-c3ccccc3S(N)(=O)=O)cc2)Cn2ncnn2)c1                 pIC50         6.61
5  C/C(=C(\F)C(=O)Nc1ccc(-c2ccccc2S(N)(=O)=O)cc1F)c1cc(C(=N)N)ccc1[N+](=O)[O-]                 pIC50         7.82
6  CC(=CC(=O)Nc1ccc(-c2ccccc2S(N)(=O)=O)cc1)c1cccc(C(=N)N)c1                 pIC50         8.40
7  COCCOc1ccc(C(=N)N)cc1C=CC(=O)Nc1ccc(-c2ccccc2S(N)(=O)=O)cc1                 pIC50         8.05
8  N=C(N)c1cc(C=CC(=O)Nc2ccc(-c3ccccc3S(N)(=O)=O)cc2)ccc1F                 pIC50         7.00
